Form field: IC50 (one value per entry).
Target: cPLA2 crudely purified from the cytoplasm fraction of U937 (Homo sapiens)
Construct: cPLA2 crudely purified from the cytoplasm fraction of U937; endogenous in cells; host or cells: U937 cells (cytoplasm fraction, crude purification)
Sequence (P47712 whole entry): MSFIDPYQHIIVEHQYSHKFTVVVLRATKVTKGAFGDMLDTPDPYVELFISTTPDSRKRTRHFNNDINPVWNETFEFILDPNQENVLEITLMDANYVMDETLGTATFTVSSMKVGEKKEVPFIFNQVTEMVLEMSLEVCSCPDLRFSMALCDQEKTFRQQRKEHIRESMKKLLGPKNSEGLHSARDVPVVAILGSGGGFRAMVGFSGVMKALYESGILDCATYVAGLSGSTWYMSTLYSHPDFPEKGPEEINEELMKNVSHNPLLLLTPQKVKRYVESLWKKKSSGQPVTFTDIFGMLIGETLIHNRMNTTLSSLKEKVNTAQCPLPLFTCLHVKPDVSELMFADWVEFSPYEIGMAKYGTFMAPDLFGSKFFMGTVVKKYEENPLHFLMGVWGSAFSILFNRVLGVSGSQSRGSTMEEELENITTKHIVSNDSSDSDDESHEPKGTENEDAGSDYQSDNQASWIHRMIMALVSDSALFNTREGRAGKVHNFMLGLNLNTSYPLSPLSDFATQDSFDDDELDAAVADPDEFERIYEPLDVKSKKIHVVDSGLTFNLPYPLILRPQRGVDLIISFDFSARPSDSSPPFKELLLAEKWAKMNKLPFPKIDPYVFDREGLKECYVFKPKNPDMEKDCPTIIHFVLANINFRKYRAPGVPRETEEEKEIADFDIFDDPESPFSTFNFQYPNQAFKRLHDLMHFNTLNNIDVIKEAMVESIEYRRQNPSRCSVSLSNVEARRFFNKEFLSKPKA
Assay: Measurement of cPLA2 inhibitory activity (release of [14C]-arachidonic acid from phosphatidyl choline liposome)
Assay type: biochemical
Settings: cPLA2 from U937 cytoplasm fraction, [14C]arachidonyl-phosphatidyl choline liposome, 37° C., 60 minutes; read-out: cPLA2 inhibitory activity, 50% inhibiting concentration IC50
Where a name gives a salt, the structure may show the parent alone.

Q: Sample CC(O)c1ccc(-n2cc(CCc3ccccn3)c3cc(CCC(=O)O)ccc32)cc1 (centres unmarked) [Example 304, hydrochloride] — what was its IC50?
Ans: > 3000 nM
